Recorded values, source the supplement of paper PMC13380429.

Parameter cell viability: see the listing below.
- Tested on: U2OS
- experiment: cell viability relative to DMSO; higher = less toxic
- condition.parameters: 72 h; 100 nM
Give just the number in %; leave the unit off.

Field: example entries. Status: answers known.
{"compound": "O=C1c2ccccc2CCC1CNCCc1ccc(O)cc1 (centres undefined)", "numeric.readout": 100}
{"compound": "CC/C(=C(/c1ccc(/C=C/C(=O)O)cc1)c1ccc2[nH]ncc2c1)c1ccc(F)cc1Cl", "numeric.readout": 98.7}
{"compound": "C[C@H]1C[C@H]2[C@@H]3CCC4=CC(=O)C=C[C@]4(C)[C@H]3C(=O)C[C@]2(C)[C@@]1(O)C(=O)CO", "numeric.readout": 96}
{"compound": "O=[N+]([O-])/C=C/c1ccc2c(c1)OCO2", "numeric.readout": 97.1}
{"compound": "CCCCCCCCNC(=O)/C(C#N)=C/c1cn(CCCN(C)C)c2ccccc12", "numeric.readout": 99}
{"compound": "Cc1c(F)cc(C(=O)NC2CC2)cc1-c1c(F)cn2c(C(C)(C)C)nnc2c1F", "numeric.readout": 94.1}

## Task Which value of cell viability has been reported for Cc1cc(NC(=O)Nc2ccc(F)c(F)c2)n(-c2ccccc2)n1 in the records?
## Result 101

## Task Which value of cell viability has been reported for O=[N+]([O-])c1c(Nc2cc(F)cc(Cl)c2)ccc2nonc12 in the records?
## Result 97.9

## Task Which value of cell viability has been reported for CCc1cccc(CC)c1NC1=NCCN1 in the records?
## Result 104
